Reference for the values: ChEMBL document CHEMBL1201862

System: OVCAR-5
method.summary: NCI tumour cell line growth inhibition, 48 h
Activity calls are given as the source filed them. No stated cut-off is given here; in the data, active = GI50 up to about 1.1 µM and inactive = higher.
Please reply with one of these outcomes: active, inactive

CCCCC(C(=O)C(=O)NC1C2CC3CC(C2)CC1C3)C(=O)C(C)C (configuration not stated) = inactive
CC(=O)Nc1sccc1S(=O)(=O)c1ccc(Cl)cc1 = inactive
CN(C)C1(N(C)C)Oc2c(c(=O)n(C)c(=O)n2C)C(c2ccc(C(F)(F)F)cc2)C1(F)F (configuration not stated) = inactive

Given CCc1n[nH]c(=O)n1NC(=O)CCCC(=O)O , state the outcome it received in this test.
inactive

Given COc1ccc(OC)c2[nH]c(Sc3c([N+](=O)[O-])ncn3C)nc12 , state the outcome it received in this test.
inactive

Given CCOC(=O)C(NCc1ccccc1)(NC(=O)c1ccccc1)C(F)(F)F (configuration not stated) , state the outcome it received in this test.
inactive

Given NC1=Nc2ccccc2Sc2nccn21 , state the outcome it received in this test.
inactive

Given CCOC(=O)c1c2c(n(Cc3ccccc3)c1C)C(=O)C(=O)c1ccccc1-2 , state the outcome it received in this test.
active

Given C=CC1(C)/C(=N\O)C(C)(CC)C(=O)N1O (configuration not stated) , state the outcome it received in this test.
inactive
